- method: Pharmacokinetics of rivaroxaban in rats after avitinib or gefitinib pretreatment
- Assay type: in vivo, Sprague–Dawley (SD) rats
- run.conditions: male, Sprague-Dawley, rat, plasma, po, 10 mg/kg, rats, rivaroxaban 10 mg/kg oral; control group (CMC-Na only); read-out: AUC(0–t)

| chemical.string | AUC(0-t) |
| --- | --- |
| O=C(NC[C@H]1CN(c2ccc(N3CCOCC3=O)cc2)C(=O)O1)c1ccc(Cl)s1 | 2250 ng·h/mL |

###

- method: Pharmacokinetics of rivaroxaban in rats after avitinib or gefitinib pretreatment
- Assay type: in vivo, Sprague–Dawley (SD) rats
- run.conditions: male, Sprague-Dawley, rat, plasma, po, 10 mg/kg, avitinib group, Mean; read-out: λz (converted)

| chemical.string | value.unit | k el |
| --- | --- | --- |
| O=C(NC[C@H]1CN(c2ccc(N3CCOCC3=O)cc2)C(=O)O1)c1ccc(Cl)s1 | s⁻¹ | 0.000104 |

###

- method: Pharmacokinetics of rivaroxaban in rats after avitinib or gefitinib pretreatment
- Format: in vivo, Sprague–Dawley (SD) rats
- run.conditions: male, Sprague-Dawley, rat, plasma, oral, plasma concentration of rivaroxaban, 1 h; gefitinib group, single rats No1-No6

| chemical.string | concentration at 1 h / ng/mL |
| --- | --- |
| O=C(NC[C@H]1CN(c2ccc(N3CCOCC3=O)cc2)C(=O)O1)c1ccc(Cl)s1 | 6110 |

###

- method: Pharmacokinetics of rivaroxaban in rats after avitinib or gefitinib pretreatment
- Type: in vivo, Sprague–Dawley (SD) rats
- run.conditions: male, Sprague-Dawley, rat, plasma, po, 10 mg/kg, rats, rivaroxaban 10 mg/kg oral; control group (CMC-Na only); read-out: Vz/F

| compound | Vd/F, L/kg |
| --- | --- |
| O=C(NC[C@H]1CN(c2ccc(N3CCOCC3=O)cc2)C(=O)O1)c1ccc(Cl)s1 [rivaroxaban, Rivaroxaban] | 11.5 |

###

- method: Pharmacokinetics of rivaroxaban in rats after avitinib or gefitinib pretreatment
- Assay type: in vivo, Sprague–Dawley (SD) rats
- run.conditions: male, Sprague-Dawley, rat, plasma, po, 10 mg/kg, avitinib group, single rats No1-No6; read-out: MRT(0-t)
measurement.kind: MRT last (h)

| compound | value.measured |
| --- | --- |
| O=C(NC[C@H]1CN(c2ccc(N3CCOCC3=O)cc2)C(=O)O1)c1ccc(Cl)s1 [rivaroxaban, Rivaroxaban] | 3.83 |

###

- method: Pharmacokinetics of rivaroxaban in rats after avitinib or gefitinib pretreatment
- Format: in vivo, Sprague–Dawley (SD) rats
- run.conditions: male, Sprague-Dawley, rat, plasma, oral, plasma concentration of rivaroxaban, 4 h; avitinib group, Mean
measurement.kind: concentration at 4 h (ng/mL)

| chemical.string | measurement.kind | value.unit | value.measured |
| --- | --- | --- | --- |
| O=C(NC[C@H]1CN(c2ccc(N3CCOCC3=O)cc2)C(=O)O1)c1ccc(Cl)s1 | concentration at 4 h | ng/mL | 1010 |

###

- method: Pharmacokinetics of rivaroxaban in rats after avitinib or gefitinib pretreatment
- Assay type: in vivo, Sprague–Dawley (SD) rats
- run.conditions: male, Sprague-Dawley, rat, plasma, oral, 10 mg/kg, rivaroxaban ng/ml mean, control (rivaroxaban alone) group, mean of rats 13-18, time 0.5

| chemical.string | value.unit | concentration at 0.5 h |
| --- | --- | --- |
| O=C(NC[C@H]1CN(c2ccc(N3CCOCC3=O)cc2)C(=O)O1)c1ccc(Cl)s1 | ng/mL | 397 |

###

- method: Pharmacokinetics of rivaroxaban in rats after avitinib or gefitinib pretreatment
- Type: in vivo, Sprague–Dawley (SD) rats
- run.conditions: male, Sprague-Dawley, rat, plasma, po, 10 mg/kg, rats, rivaroxaban 10 mg/kg oral; control group (CMC-Na only); read-out: Cmax
measurement.kind: Cmax (ng/mL)

| chemical.string | value.unit | value.measured |
| --- | --- | --- |
| O=C(NC[C@H]1CN(c2ccc(N3CCOCC3=O)cc2)C(=O)O1)c1ccc(Cl)s1 | ng/mL | 441 |

###

- method: Pharmacokinetics of rivaroxaban in rats after avitinib or gefitinib pretreatment
- Format: in vivo, Sprague–Dawley (SD) rats
- run.conditions: male, Sprague-Dawley, rat, plasma, oral, plasma concentration of rivaroxaban, 5 min; gefitinib group, Mean
measurement.kind: concentration at 5 min (ng/mL)

| chemical.string | measurement.kind | value.measured |
| --- | --- | --- |
| O=C(NC[C@H]1CN(c2ccc(N3CCOCC3=O)cc2)C(=O)O1)c1ccc(Cl)s1 | concentration at 5 min | 626 |

###

- method: Pharmacokinetics of rivaroxaban in rats after avitinib or gefitinib pretreatment
- Assay type: in vivo, Sprague–Dawley (SD) rats
- run.conditions: male, Sprague-Dawley, rat, plasma, oral, plasma concentration of rivaroxaban, 8 h; gefitinib group, Mean
measurement.kind: concentration at 8 h

| chemical.string | value.measured |
| --- | --- |
| O=C(NC[C@H]1CN(c2ccc(N3CCOCC3=O)cc2)C(=O)O1)c1ccc(Cl)s1 | 3710 ng/mL |

###

- method: Pharmacokinetics of rivaroxaban in rats after avitinib or gefitinib pretreatment
- Type: in vivo, Sprague–Dawley (SD) rats
- run.conditions: male, Sprague-Dawley, rat, plasma, oral, rivaroxaban ng/ml, 吉非替尼 (gefitinib) group, individual rats 7-12, time 0.25
measurement.kind: concentration at 0.25 h (µg/mL)

| chemical.string | value.measured |
| --- | --- |
| O=C(NC[C@H]1CN(c2ccc(N3CCOCC3=O)cc2)C(=O)O1)c1ccc(Cl)s1 | 1.69 |

###

- method: Pharmacokinetics of rivaroxaban in rats after avitinib or gefitinib pretreatment
- Type: in vivo, Sprague–Dawley (SD) rats
- run.conditions: male, Sprague-Dawley, rat, plasma, po, 10 mg/kg, rats, rivaroxaban 10 mg/kg oral; control group (CMC-Na only)

| chemical.string | Tmax / min |
| --- | --- |
| O=C(NC[C@H]1CN(c2ccc(N3CCOCC3=O)cc2)C(=O)O1)c1ccc(Cl)s1 | 49.8 |

###

- method: Pharmacokinetics of rivaroxaban in rats after avitinib or gefitinib pretreatment
- Assay type: in vivo, Sprague–Dawley (SD) rats
- run.conditions: male, Sprague-Dawley, rat, plasma, po, 10 mg/kg, rats, rivaroxaban 10 mg/kg oral; avitinib group (30 mg/kg pretreatment)

| chemical.string | AUC(0-inf) |
| --- | --- |
| O=C(NC[C@H]1CN(c2ccc(N3CCOCC3=O)cc2)C(=O)O1)c1ccc(Cl)s1 | 9350 ng·h/mL |

###

- method: Pharmacokinetics of rivaroxaban in rats after avitinib or gefitinib pretreatment
- Assay type: in vivo, Sprague–Dawley (SD) rats
- run.conditions: male, Sprague-Dawley, rat, plasma, oral, plasma concentration of rivaroxaban, 0.5 h; avitinib group, Mean

| compound | concentration at 0.5 h |
| --- | --- |
| O=C(NC[C@H]1CN(c2ccc(N3CCOCC3=O)cc2)C(=O)O1)c1ccc(Cl)s1 [rivaroxaban, Rivaroxaban] | 1090 ng/mL |

###

- method: Pharmacokinetics of rivaroxaban in rats after avitinib or gefitinib pretreatment
- Assay type: in vivo, Sprague–Dawley (SD) rats
- run.conditions: male, Sprague-Dawley, rat, plasma, po, 10 mg/kg, rats, rivaroxaban 10 mg/kg oral; avitinib group (30 mg/kg pretreatment); read-out: t1/2 (converted)

| compound | half-life / h |
| --- | --- |
| O=C(NC[C@H]1CN(c2ccc(N3CCOCC3=O)cc2)C(=O)O1)c1ccc(Cl)s1 [rivaroxaban, Rivaroxaban] | 2.2 |

###

- method: Pharmacokinetics of rivaroxaban in rats after avitinib or gefitinib pretreatment
- Format: in vivo, Sprague–Dawley (SD) rats
- run.conditions: male, Sprague-Dawley, rat, plasma, po, 10 mg/kg, rats, rivaroxaban 10 mg/kg oral; control group (CMC-Na only)
- Procedure: Eighteen male Sprague–Dawley (SD) rats weighing 300 ± 20 g were provided by the Experimental Animal Center of Wenzhou Medical University (Wenzhou, China) and kept under controlled conditions at a temperature of 23 ± 2 °C, relative humidity of 50 ± 10%, and 12 h light–dark cycle. Eighteen male SD rats were randomly assigned to three groups: avitinib, gefitinib, and control, with six rats per group. […] All assays were performed in triplicate, and the results are expressed as mean ± standard deviation. […]
measurement.kind: AUC(0-inf) (ng·h/mL)

| chemical.string | value.unit | value.measured |
| --- | --- | --- |
| O=C(NC[C@H]1CN(c2ccc(N3CCOCC3=O)cc2)C(=O)O1)c1ccc(Cl)s1 | ng·h/mL | 2280 |

###

- method: Pharmacokinetics of rivaroxaban in rats after avitinib or gefitinib pretreatment
- Format: in vivo, Sprague–Dawley (SD) rats
- run.conditions: male, Sprague-Dawley, rat, plasma, oral, rivaroxaban ng/ml mean, 艾维替尼 (avitinib) group, mean of rats 1-6, time 8

| compound | concentration at 8 h |
| --- | --- |
| O=C(NC[C@H]1CN(c2ccc(N3CCOCC3=O)cc2)C(=O)O1)c1ccc(Cl)s1 [rivaroxaban, Rivaroxaban] | 448 ng/mL |
